Biological target: Yer184c (UniProt P39961)
Sequence: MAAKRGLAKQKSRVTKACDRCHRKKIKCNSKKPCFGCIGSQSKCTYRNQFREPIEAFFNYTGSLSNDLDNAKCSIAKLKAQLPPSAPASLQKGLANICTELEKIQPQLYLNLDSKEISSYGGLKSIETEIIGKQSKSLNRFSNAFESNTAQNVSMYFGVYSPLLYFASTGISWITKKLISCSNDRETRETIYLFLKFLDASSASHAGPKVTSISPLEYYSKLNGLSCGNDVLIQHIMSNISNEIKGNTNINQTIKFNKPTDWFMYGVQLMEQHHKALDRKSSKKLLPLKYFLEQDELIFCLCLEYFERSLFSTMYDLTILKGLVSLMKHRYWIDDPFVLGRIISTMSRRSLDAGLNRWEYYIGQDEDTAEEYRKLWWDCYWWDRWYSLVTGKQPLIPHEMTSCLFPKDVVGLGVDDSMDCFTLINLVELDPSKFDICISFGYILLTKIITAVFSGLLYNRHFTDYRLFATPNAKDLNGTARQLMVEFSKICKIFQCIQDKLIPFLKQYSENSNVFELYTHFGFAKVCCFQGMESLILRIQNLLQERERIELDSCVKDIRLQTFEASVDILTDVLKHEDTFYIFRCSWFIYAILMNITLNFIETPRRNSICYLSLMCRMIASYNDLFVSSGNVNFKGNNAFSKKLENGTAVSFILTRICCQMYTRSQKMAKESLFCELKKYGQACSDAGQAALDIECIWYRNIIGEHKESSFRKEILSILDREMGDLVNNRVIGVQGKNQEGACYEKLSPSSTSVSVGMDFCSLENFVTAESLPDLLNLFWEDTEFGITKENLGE
Assay: PBM E-score (8-mer binding enrichment) (E-score (-0.5 to 0.5)); higher = stronger / more preferred TF binding
Conditions: protein concentration: 100 nM; construct: GST-full length
The full ranking holds about 33,000 sequences; the median of “E-score (-0.5 to 0.5)” is about -0.016, and the highest 2% start at about 0.3. This excerpt belongs to a sample that is enriched for the highest values.
Decision: PBM E-score >= 0.04 yields Met, all other cases yield Not met.

Could you please find out whether GCAGGAAC has PBM E-score that meets 0.04 or exceeds it?
Not met

Could you please find out whether CCCGGAAG has PBM E-score that meets 0.04 or exceeds it?
Met

Could you please find out whether GCCGGAAC has PBM E-score that meets 0.04 or exceeds it?
Met

Could you please find out whether ACTTCTAG has PBM E-score that meets 0.04 or exceeds it?
Not met

Could you please find out whether CCGGCCAC has PBM E-score that meets 0.04 or exceeds it?
Met

====

Biological target: Yer184c (UniProt P39961)
Sequence: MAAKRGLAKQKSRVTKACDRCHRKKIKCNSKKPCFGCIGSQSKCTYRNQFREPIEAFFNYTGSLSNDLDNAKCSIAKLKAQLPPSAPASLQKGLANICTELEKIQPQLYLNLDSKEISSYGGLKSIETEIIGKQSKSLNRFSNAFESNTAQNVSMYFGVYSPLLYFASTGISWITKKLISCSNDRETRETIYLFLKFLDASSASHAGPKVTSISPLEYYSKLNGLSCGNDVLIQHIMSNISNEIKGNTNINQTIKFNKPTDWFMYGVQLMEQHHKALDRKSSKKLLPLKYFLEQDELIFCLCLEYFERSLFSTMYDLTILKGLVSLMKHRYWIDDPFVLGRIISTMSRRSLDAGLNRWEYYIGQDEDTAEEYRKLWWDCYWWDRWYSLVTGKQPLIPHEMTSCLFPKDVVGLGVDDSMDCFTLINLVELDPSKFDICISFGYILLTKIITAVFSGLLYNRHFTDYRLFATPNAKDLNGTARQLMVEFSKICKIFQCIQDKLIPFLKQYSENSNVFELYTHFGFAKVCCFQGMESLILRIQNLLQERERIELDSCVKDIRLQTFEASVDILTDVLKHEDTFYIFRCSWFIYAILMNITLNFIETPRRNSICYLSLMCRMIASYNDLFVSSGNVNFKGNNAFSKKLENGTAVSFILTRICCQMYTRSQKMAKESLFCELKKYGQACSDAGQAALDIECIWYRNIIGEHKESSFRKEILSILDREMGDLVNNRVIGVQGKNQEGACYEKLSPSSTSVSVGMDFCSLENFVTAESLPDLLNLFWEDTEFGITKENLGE
Assay: PBM E-score (8-mer binding enrichment) (E-score (-0.5 to 0.5)); higher = stronger / more preferred TF binding
Settings: protein concentration: 100 nM; construct: GST-full length
Whole data set: some 33,000 sequences, median “E-score (-0.5 to 0.5)” near -0.016, cut for the highest 2% near 0.3. The entries come from a sample that favours the highest values as a whole.
Decision: PBM E-score >= 0.1 yields 1, all other cases yield -1.

query_sequence	class_assignment
CTCCGGGC	-1
ATGCGGAA	1
TGGAACAA	1
ATCCGGGC	1
GGGCGACC	-1

Could you please find out whether CCGAACTC has PBM E-score that meets 0.1 or exceeds it?
1

Could you please find out whether AACATCCG has PBM E-score that meets 0.1 or exceeds it?
1

Could you please find out whether AACATCCC has PBM E-score that meets 0.1 or exceeds it?
1

Could you please find out whether ATTTGATG has PBM E-score that meets 0.1 or exceeds it?
1

Could you please find out whether AGGAACAG has PBM E-score that meets 0.1 or exceeds it?
-1

Could you please find out whether AATATCCA has PBM E-score that meets 0.1 or exceeds it?
1

Could you please find out whether CGGAACAA has PBM E-score that meets 0.1 or exceeds it?
1

Could you please find out whether AGCGGCCG has PBM E-score that meets 0.1 or exceeds it?
1

Could you please find out whether CCGGCCCA has PBM E-score that meets 0.1 or exceeds it?
1
